binders and their reported peptide exchange yield
target: T1, HLA-A*03:01 (human); experiment: UV-ligand exchange, anti-b2m ELISA; exchange yield grade (+ >10%, ++ >20%, +++ >50, ++++ >75%)
T1 construct: Peptide-receptive MHC monomer made by UV cleavage of a UV-sensitive peptide

QLYSKFLLK has a reported peptide exchange yield of 50 to 75%

RLSPNDQYK has a reported peptide exchange yield of 20 to 50%

Continuing:
ATMQSKLIQK has a reported peptide exchange yield of 50 to 75%

GSYSALLAKK has a reported peptide exchange yield of 50 to 75%

KIKEHVRSK has a reported peptide exchange yield of 20 to 50%

GSRLGKYYVK has a reported peptide exchange yield of 10 to 20%

KLFGTSGQK has a reported peptide exchange yield of 50 to 75%

GSAALYLLR has a reported peptide exchange yield of 20 to 50%
